Form field: HDAC6 selectivity (fold) (one value per entry).
# Assay system: human recombinant HDAC6 (Homo sapiens)
# Construct: purchased Calbiochem 382180
# Sequence (Q9UBN7 whole entry): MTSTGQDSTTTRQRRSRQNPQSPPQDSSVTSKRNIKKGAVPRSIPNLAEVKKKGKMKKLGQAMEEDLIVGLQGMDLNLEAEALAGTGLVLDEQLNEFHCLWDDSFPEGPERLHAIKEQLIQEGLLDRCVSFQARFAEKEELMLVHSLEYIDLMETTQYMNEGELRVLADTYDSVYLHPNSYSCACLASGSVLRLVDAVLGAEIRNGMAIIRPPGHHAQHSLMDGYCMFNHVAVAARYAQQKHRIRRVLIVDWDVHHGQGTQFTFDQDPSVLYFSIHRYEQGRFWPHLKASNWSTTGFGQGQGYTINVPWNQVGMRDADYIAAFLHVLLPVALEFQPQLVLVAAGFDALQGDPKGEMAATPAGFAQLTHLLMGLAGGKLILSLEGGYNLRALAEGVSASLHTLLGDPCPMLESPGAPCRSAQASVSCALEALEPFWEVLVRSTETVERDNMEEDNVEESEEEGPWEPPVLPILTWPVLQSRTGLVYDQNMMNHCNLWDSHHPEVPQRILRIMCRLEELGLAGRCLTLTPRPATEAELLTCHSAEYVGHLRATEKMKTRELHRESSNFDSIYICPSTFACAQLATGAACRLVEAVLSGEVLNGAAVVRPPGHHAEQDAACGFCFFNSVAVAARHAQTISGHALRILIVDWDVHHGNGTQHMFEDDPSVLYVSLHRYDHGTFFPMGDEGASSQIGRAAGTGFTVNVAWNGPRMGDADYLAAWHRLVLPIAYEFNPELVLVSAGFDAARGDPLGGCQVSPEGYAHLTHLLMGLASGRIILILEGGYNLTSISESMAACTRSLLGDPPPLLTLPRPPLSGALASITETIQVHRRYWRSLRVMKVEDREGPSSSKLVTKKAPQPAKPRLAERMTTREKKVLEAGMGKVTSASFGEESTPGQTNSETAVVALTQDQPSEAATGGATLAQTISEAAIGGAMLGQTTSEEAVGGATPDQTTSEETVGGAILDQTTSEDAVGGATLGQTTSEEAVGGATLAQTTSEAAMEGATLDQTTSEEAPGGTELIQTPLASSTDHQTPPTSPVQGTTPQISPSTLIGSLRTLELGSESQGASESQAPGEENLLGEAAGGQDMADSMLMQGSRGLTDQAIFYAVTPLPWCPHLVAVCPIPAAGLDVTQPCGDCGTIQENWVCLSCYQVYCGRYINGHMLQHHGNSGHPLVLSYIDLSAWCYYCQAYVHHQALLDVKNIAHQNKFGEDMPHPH
# Assay notes: HDAC6 enzyme activity inhibition test (HDAC Fluorometric Drug Discovery Kit)
# Type: biochemical
# Details: HDAC6 over HDAC1

In the examples that follow, each entry is paired with its recorded HDAC6 selectivity (fold).
Smiles string: CN(C)Cc1ccc(-c2nn(Cc3ccc(-c4nnc(C(F)F)o4)cn3)c(=S)o2)s1
Assay system: human recombinant HDAC6 (Homo sapiens)
HDAC6 selectivity (fold): 639 fold
--
Smiles string: CN(C)Cc1cccc(-c2nn(Cc3ccc(-c4nnc(C(F)F)o4)cn3)c(=S)o2)c1
Assay system: human recombinant HDAC6 (Homo sapiens)
HDAC6 selectivity (fold): 497 fold

Attention now shifts to the item below.
input: Look up HDAC6 selectivity (fold) with human recombinant HDAC6 (Homo sapiens) for this compound: "Fc1cc(-c2nnc(C(F)F)o2)cnc1Cn1nc(-c2cnccn2)oc1=S"
output: 560 fold
